src = patent US4570005A

# assay.procedure: Test 8: Fish Toxicity
# Type: in vivo
# experimental.context: carp, water; concentration at which 1/2 of the test fishes were killed within 48 hours; read-out: Fish Toxicity, TLm48
property.measured: LC50 at 48 h

Worked cases, answers included:
{"compound": "CCC(C)(COCc1cccc(Oc2ccccc2)c1)c1ccc(C)cc1 (stereo not drawn)", "property.measured": "LC50 at 48 h", "measured.value": "> 10 µg/mL"}
{"compound": "CC(C)(COCc1cccc(Oc2ccc(F)cc2)c1)c1cccc(C(F)(F)F)c1", "property.measured": "LC50 at 48 h", "measured.value": "> 1 µg/mL"}
{"compound": "CCC(C)(COCc1cccc(Oc2ccc(Br)cc2)c1)c1ccc(Cl)cc1 (stereo not drawn)", "property.measured": "LC50 at 48 h", "measured.value": "> 10 µg/mL"}
{"compound": "CC(C)(COCc1cccc(Oc2ccccc2)c1)c1ccc(F)cc1", "property.measured": "LC50 at 48 h", "measured.value": "> 1 µg/mL"}
{"compound": "CC(C)(CSCc1cccc(Oc2ccccc2)c1)c1ccc(Cl)cc1", "property.measured": "LC50 at 48 h", "measured.value": "> 10 µg/mL"}

Given the compound CC(C)(COCc1cccc(Oc2ccc(F)cc2)c1)c1ccc(Cl)cc1 , what is its reported LC50 at 48 h?
> 10 µg/mL

Note, next up: CC(C)(COCc1cccc(Oc2ccc(Br)cc2)c1)c1ccc(OC(F)F)cc1
> 1 µg/mL

Same read-out for CC(C)(COCc1cccc(Oc2ccccc2)c1)c1ccc(Cl)cc1 ?
> 10 µg/mL

Next compound up: COc1ccc(Oc2cccc(COCC(C)(C)c3ccc(Cl)c(Cl)c3)c2)cc1
> 10 µg/mL

Now give it for CC(C)C(C(=O)OC(C#N)c1cccc(Oc2ccccc2)c1)c1ccc(Cl)cc1 (stereo not drawn) [Comparative Compound (a), reference compound] too.
< 0.005 µg/mL
